# ASSAYED TARGET: UniProt:Q6DWJ6
# Sequence (Q6DWJ6 whole entry): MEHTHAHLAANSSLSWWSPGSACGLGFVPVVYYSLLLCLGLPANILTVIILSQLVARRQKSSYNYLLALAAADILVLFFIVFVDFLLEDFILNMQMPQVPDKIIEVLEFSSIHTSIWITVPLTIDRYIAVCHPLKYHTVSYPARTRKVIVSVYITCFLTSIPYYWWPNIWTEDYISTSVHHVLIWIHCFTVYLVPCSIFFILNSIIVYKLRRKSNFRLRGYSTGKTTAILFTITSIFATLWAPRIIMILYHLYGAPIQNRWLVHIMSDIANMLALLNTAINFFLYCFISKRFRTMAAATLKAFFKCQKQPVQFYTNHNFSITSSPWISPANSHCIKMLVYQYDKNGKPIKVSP
# TEST NAME: GPR139 Agonist titration / agonist counterscreen assay (calcium detection, HEK-GPR139 cells)
# Assay type: cell-based
# Design: expressed in transfected cells; host or cells: HEK Aequorin cells, Maxcyte transient transfection
# CONDITIONS: GPR139 Agonist Activity; activity relative to known control
# Protocol: GPR activity was assessed using a calcium detection assay. […] Negative control samples were treated with DMSO. […] Intracellular calcium was measured using Calcium 5.
EXPERIMENTAL READOUT: Averaged Max % Response (±St. Dev.) (%)
State just the number; it will be interpreted in %.

In: Sample "CC(C)(C)OC(=O)NNC(=O)COCc1ccc(Cl)c(Cl)c1" — what was its Averaged Max % Response (±St. Dev.)?
Out: 90.02

In: Sample CCOC(=O)C1CCN(C(=O)C2CC(Cc3cccc4ccccc34)=NO2)CC1 (centres unmarked) — what was its Averaged Max % Response (±St. Dev.)?
Out: 81.20

In: Sample "Cc1c(C=O)c2ccccc2n1CC(=O)NCc1ccccc1" — what was its Averaged Max % Response (±St. Dev.)?
Out: 88.11

In: Sample "Cc1ccc2c(c1)CCCN2CC(=O)N(C)c1c(N)n(Cc2ccccc2)c(=O)[nH]c1=O" — what was its Averaged Max % Response (±St. Dev.)?
Out: 96.94

In: Sample CC(NC(=O)c1ccc2c(c1)N(Cc1ccccc1)C(=O)C[S+]2[O-])c1ccccc1 (centres unmarked) — what was its Averaged Max % Response (±St. Dev.)?
Out: 98.04

In: Sample O=C(CN1C(=O)NC2(CCc3ccccc32)C1=O)Nc1cccc(Cl)c1 (centres unmarked) — what was its Averaged Max % Response (±St. Dev.)?
Out: 116.05

In: Sample "COC(=O)c1ccc(CNC(=O)Nc2ccc(-c3cn[nH]c3)cc2)cc1.O=C(O)C(F)(F)F" — what was its Averaged Max % Response (±St. Dev.)?
Out: 99.92

In: Sample CN(C(=O)CN1C(=O)NC(C)(c2ccc3ccccc3c2)C1=O)C1CCCCC1 (centres unmarked) — what was its Averaged Max % Response (±St. Dev.)?
Out: 118.34

In: Sample "Cc1ccc(OCC(=O)NNC(=O)CN(C)S(=O)(=O)c2ccc(C)cc2)cc1" — what was its Averaged Max % Response (±St. Dev.)?
Out: 94.34

In: Sample "Cc1ccc2c(c1)-c1c(cnn1CC(=O)Nc1ccc(F)cc1)CO2" — what was its Averaged Max % Response (±St. Dev.)?
Out: 78.44

In: Sample O=C(CCOc1ccccc1)NCC1COc2ccccc2O1 (centres unmarked) — what was its Averaged Max % Response (±St. Dev.)?
Out: 101.79

In: Sample "CN(C)c1ccc(NC(=O)Cn2cc(C=O)c3ccccc32)cc1" — what was its Averaged Max % Response (±St. Dev.)?
Out: 89.20

In: Sample "CCOC(=O)N1CCC2=C(CC(NC(=O)Cc3cccc4ccccc34)=C2C(C)=O)C1" — what was its Averaged Max % Response (±St. Dev.)?
Out: 63.10

In: Sample "O=C(NCCn1ccc2ccccc21)c1cccc(Br)c1" — what was its Averaged Max % Response (±St. Dev.)?
Out: 71.94

In: Sample COc1ccc(CCN2CC3=C(C2=O)C(c2ccc(F)c(F)c2)NC(=O)N3)cc1 (centres unmarked) — what was its Averaged Max % Response (±St. Dev.)?
Out: 86.79

In: Sample CC(C(=O)NCCn1nnn(-c2ccccc2)c1=O)n1nc2ccccc2n1 (centres unmarked) — what was its Averaged Max % Response (±St. Dev.)?
Out: 97.42

In: Sample "COc1ccccc1NC(=O)NNC(=O)CN1C(=O)COc2ccccc21" — what was its Averaged Max % Response (±St. Dev.)?
Out: 100.35

In: Sample "Cc1cc(NC(=O)Cn2ncc3c2-c2ccccc2OC3)no1" — what was its Averaged Max % Response (±St. Dev.)?
Out: 75.62

In: Sample O=C(NC1CC1)C1CC(Cc2cccc3ccccc23)=NO1 (centres unmarked) — what was its Averaged Max % Response (±St. Dev.)?
Out: 112.57

In: Sample COc1ccccc1CN1CCNC(=O)C1CC(=O)NCCCN1CCc2ccccc21 (centres unmarked) — what was its Averaged Max % Response (±St. Dev.)?
Out: 83.30

In: Sample "O=C(CSc1ccc(Cl)cc1)Nc1nnc(-c2ccco2)o1" — what was its Averaged Max % Response (±St. Dev.)?
Out: 111.88

In: Sample "O=C(Cn1ncn2cccc2c1=O)NCCc1ccc(Cl)cc1" — what was its Averaged Max % Response (±St. Dev.)?
Out: 113.63

In: Sample "COc1ccc(CCNC(=O)c2ccnc(N3CCN(Cc4ccc5c(c4)OCO5)CC3)c2)cc1" — what was its Averaged Max % Response (±St. Dev.)?
Out: 115.41

In: Sample CCCC(=O)C1CCC(C(=O)CC2CCC(c3ccc(C(C)O)cc3)C2=O)CC1 (centres unmarked) — what was its Averaged Max % Response (±St. Dev.)?
Out: 69.93

In: Sample "COc1ccc(NC(=O)NCCOc2cccc3ccccc23)cc1OC" — what was its Averaged Max % Response (±St. Dev.)?
Out: 115.59

In: Sample "COc1ccc(CCNC(=O)CC(=O)NCCc2ccc(OC)cc2)cc1" — what was its Averaged Max % Response (±St. Dev.)?
Out: 100.73

In: Sample "O=C(CCS(=O)(=O)c1cccc2nonc12)NCCc1ccc(Cl)cc1" — what was its Averaged Max % Response (±St. Dev.)?
Out: 68.12

In: Sample "CC(=O)c1cccc(C(C)(C)CC(=O)CNC(=O)c2ccccc2)c1" — what was its Averaged Max % Response (±St. Dev.)?
Out: 113.33

In: Sample CCOc1ccccc1NC(=O)CN1C(=O)NC(C)(c2ccc(Cl)cc2Cl)C1=O (centres unmarked) — what was its Averaged Max % Response (±St. Dev.)?
Out: 94.94

In: Sample CC(NC(=O)CN1CCN(Cc2ccc(Cl)cc2)C1=O)c1ccccc1 (centres unmarked) — what was its Averaged Max % Response (±St. Dev.)?
Out: 114.03

In: Sample "O=C(CN1CCN(C/C=C/c2ccccc2)CC1)NCCCc1ccccc1" — what was its Averaged Max % Response (±St. Dev.)?
Out: 128.31

In: Sample CCCCCc1cc(C2=CCC=C2)ccc1CC(=O)C1CCc2ccccc2C1 (centres unmarked) — what was its Averaged Max % Response (±St. Dev.)?
Out: 92.93

In: Sample "Cc1onc(-c2ccccc2Cl)c1C(=O)N1CCC(Cn2ccnc2C)CC1" — what was its Averaged Max % Response (±St. Dev.)?
Out: 86.62

In: Sample CC(CCC(=O)C12CC3CC(CC(C3)C1)C2)CCc1ccc2ccccc2c1 (centres unmarked) — what was its Averaged Max % Response (±St. Dev.)?
Out: 116.44

In: Sample COC(=O)C(CCSC)NC(=O)C1CC(Cc2ccc3c(c2)OCO3)=NO1 (centres unmarked) — what was its Averaged Max % Response (±St. Dev.)?
Out: 75.38
